target: KRAS G13D (Homo sapiens (Human), UniProt P01116+P62937, G13D); assay: Ras-Raf (BRAF RBD) disruption / FRET / MOA assay, KRAS G13D; format: biochemical; details: read-out: IC50* KRAS G13D FRET data
Sequence (P01116-2 other isoform, or with tags, fused parts or gaps G13D): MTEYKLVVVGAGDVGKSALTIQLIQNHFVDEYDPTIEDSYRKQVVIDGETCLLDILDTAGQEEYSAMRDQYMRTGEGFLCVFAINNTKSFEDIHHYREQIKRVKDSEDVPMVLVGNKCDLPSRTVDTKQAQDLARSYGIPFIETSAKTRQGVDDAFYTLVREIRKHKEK
Sequence (P62937 whole entry): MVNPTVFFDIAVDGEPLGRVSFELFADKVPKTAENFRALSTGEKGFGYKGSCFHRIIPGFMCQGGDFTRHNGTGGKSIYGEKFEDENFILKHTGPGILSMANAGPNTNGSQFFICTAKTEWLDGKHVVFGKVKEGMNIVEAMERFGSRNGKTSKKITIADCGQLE
pIC50: −log10 of the molar value.
observedProperty: pIC50

[
  {
    "compound": "CCn1c(-c2cccnc2COC)c2c3cc(ccc31)-c1cc(O)cc(c1)C[C@H](NC(=O)[C@H](C(C)C)N(C)C(=O)[C@H]1CCN(C(=O)/C=C/CN(C)C)C1)C(=O)N1CCC[C@H](N1)C(=O)OCC(C)(C)C2",
    "target": "KRAS G13D (Homo sapiens (Human), UniProt P01116+P62937, G13D)",
    "observedProperty": "pIC50",
    "result": "6.00 to 7.00"
  },
  {
    "compound": "CCn1c(-c2cccnc2[C@H](C)OC)c2c3cc(ccc31)-c1cccc(c1)C[C@H](NC(=O)[C@@H](CO[C@@H]1CCN(C(=O)C#CC(C)(C)N(C)C)C1)C(C)C)C(=O)N1CCC[C@H](N1)C(=O)OCC(C)(C)C2 (atropisomer, axis not shown)",
    "target": "KRAS G13D (Homo sapiens (Human), UniProt P01116+P62937, G13D)",
    "observedProperty": "pIC50",
    "result": "< 5.00"
  },
  {
    "compound": "C=CC(=O)N1CC[C@H](C(=O)N(C)[C@H](C(=O)N[C@H]2Cc3cccc(c3)-c3ccc4c(c3)c(c(-c3cnn(C)c3CN(C)C)n4CC)CC(C)(C)COC(=O)[C@@H]3CCCN(N3)C2=O)C(C)C)C1 (relative stereo)",
    "target": "KRAS G13D (Homo sapiens (Human), UniProt P01116+P62937, G13D)",
    "observedProperty": "pIC50",
    "result": "< 5.00"
  }
]

## Task For the compound C=CC(=O)N1CC[C@H](C(=O)N(C)[C@H](C(=O)N[C@H]2Cc3cc(O)cc(c3)-c3ccc4c(c3)c(c(-c3ccc(CN(C)C)c(COC)c3)n4CC)CC(C)(C)COC(=O)[C@@H]3CCCN(N3)C2=O)C(C)C)C1 , give its measured pIC50 value.
## Result 5.00 to 6.00

## Task For the compound C=CC(=O)N1CCO[C@@H]2CCN(C(=O)N(C)[C@H](C(=O)N[C@H]3Cc4nc(cs4)-c4ccc5c(c4)c(c(-c4cccnc4[C@H](C)OC)n5CC)CC(C)(C)COC(=O)[C@@H]4CCCN(N4)C3=O)C(C)C)C[C@@H]21 (atropisomer, axis not shown) , give its measured pIC50 value.
## Result 6.00 to 7.00

## Task For the compound C=CC(=O)N1CCC2(CC1)CCN2C(=O)N(C)[C@H](C(=O)N[C@H]1Cc2nc(cs2)-c2ccc3c(c2)c(c(-c2cccnc2[C@H](C)OC)n3CC)CC(C)(C)COC(=O)[C@@H]2CCCN(N2)C1=O)C(C)C (atropisomer, axis not shown) , give its measured pIC50 value.
## Result 6.00 to 7.00

## Task For the compound C=CC(=O)N1C[C@@H](C)[C@H](C(=O)N(C)[C@H](C(=O)N[C@H]2Cc3cccc(c3)-c3ccc4c(c3)c(c(-c3cccnc3[C@H](C)OC)n4CC)CC(C)(C)COC(=O)[C@@H]3CCCN(N3)C2=O)C(C)C)C1 (atropisomer, axis not shown) , give its measured pIC50 value.
## Result < 5.00
